Attribution: patent US8962641B2

For each record, write down the corresponding IC50.
measured-on: human ACC2 (Homo sapiens (Human), UniProt O00763)
Sequence (O00763 129-2458): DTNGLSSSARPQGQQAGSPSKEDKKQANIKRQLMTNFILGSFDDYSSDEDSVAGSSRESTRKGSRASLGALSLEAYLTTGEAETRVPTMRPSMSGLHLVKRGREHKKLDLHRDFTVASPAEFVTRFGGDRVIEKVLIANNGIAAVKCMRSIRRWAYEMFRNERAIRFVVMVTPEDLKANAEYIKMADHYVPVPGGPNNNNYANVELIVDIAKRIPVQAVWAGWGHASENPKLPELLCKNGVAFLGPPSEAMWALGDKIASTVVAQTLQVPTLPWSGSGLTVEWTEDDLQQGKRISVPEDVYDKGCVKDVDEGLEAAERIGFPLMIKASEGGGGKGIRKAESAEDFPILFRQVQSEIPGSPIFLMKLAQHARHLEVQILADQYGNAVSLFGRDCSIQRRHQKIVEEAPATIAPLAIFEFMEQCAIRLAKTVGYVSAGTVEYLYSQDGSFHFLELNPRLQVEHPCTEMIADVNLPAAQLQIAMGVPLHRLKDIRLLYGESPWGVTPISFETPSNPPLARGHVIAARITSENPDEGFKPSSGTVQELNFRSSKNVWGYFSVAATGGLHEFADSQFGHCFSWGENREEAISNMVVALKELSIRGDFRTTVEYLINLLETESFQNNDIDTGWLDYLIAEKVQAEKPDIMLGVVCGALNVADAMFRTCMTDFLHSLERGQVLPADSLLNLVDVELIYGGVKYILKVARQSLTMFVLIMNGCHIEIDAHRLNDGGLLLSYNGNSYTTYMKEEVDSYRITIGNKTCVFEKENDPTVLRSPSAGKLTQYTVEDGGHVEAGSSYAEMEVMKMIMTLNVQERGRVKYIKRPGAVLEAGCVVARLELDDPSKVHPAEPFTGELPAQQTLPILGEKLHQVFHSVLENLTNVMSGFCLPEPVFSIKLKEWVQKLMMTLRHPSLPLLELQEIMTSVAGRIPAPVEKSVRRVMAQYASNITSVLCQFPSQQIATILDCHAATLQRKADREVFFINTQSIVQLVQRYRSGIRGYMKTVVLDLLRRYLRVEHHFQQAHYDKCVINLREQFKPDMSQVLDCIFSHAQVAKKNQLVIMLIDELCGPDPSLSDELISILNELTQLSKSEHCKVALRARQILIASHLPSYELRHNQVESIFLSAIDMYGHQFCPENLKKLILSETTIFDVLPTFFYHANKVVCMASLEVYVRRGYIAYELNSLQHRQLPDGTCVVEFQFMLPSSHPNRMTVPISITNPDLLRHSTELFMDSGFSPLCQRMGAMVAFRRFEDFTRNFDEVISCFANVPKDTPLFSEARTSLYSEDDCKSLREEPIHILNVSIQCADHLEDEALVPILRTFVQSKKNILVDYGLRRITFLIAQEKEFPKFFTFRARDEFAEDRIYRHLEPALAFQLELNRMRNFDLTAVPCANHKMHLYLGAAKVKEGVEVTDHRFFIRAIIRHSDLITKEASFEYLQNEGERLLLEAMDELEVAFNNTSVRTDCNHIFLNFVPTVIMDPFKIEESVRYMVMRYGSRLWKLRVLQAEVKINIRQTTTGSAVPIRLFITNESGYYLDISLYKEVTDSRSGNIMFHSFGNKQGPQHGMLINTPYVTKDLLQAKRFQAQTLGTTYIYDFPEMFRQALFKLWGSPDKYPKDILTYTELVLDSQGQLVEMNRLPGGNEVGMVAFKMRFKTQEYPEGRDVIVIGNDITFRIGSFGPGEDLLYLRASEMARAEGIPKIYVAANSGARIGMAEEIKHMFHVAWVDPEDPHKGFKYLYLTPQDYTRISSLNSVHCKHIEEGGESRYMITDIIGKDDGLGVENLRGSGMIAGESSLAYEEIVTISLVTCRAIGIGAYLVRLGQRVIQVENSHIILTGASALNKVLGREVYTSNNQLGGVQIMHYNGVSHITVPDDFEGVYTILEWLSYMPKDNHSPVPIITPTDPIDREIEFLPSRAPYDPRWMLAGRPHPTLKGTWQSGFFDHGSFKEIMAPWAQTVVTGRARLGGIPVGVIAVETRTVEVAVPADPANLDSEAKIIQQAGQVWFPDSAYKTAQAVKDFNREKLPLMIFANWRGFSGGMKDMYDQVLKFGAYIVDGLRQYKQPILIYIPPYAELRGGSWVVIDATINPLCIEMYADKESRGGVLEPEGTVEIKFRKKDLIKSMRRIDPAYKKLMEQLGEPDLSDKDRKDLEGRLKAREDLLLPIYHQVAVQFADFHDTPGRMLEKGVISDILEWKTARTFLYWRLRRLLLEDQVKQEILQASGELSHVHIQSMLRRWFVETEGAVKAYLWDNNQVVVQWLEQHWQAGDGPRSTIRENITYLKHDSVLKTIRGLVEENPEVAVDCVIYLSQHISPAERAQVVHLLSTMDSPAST
experiment-notes: ACC2 assay (spectrophotometric 384 well assay, NADH-linked kinetic method)
Type: biochemical
condition: hACC2 construct lacking 128 N-terminal amino acids; coupled lactate dehydrogenase/pyruvate kinase reaction, 340 nm, 25° C.
// return numeric value only (unit: nM, not printed)

Record CC(=O)N[C@@H](C)c1ccc(O[C@@H]2CCN(c3nc(OCC4CC4(F)F)ncc3F)C2)cc1 (stereo partly shown) has human ACC2 (Homo sapiens (Human), UniProt O00763) IC50 equal to 789

human ACC2 (Homo sapiens (Human), UniProt O00763) IC50 of `CC(=O)N[C@@H](C)c1ccc(O[C@@H]2CCN(c3nc(N(C)CCC(F)(F)F)ncc3F)C2)cc1` is 56

Log: human ACC2 (Homo sapiens (Human), UniProt O00763), molecule `CCN(C)c1nccc(N2CC[C@@H](Oc3ccc([C@H](C)NC(C)=O)cc3)C2)n1` , IC50 = 190

Sample `CC(=O)N[C@@H](C)c1ccc(O[C@@H]2CCN(c3nc(N4CCCC4)ncc3Br)C2)cc1` , system: human ACC2 (Homo sapiens (Human), UniProt O00763). Its IC50 is 425

====

measured-on: human ACC2 (Homo sapiens (Human), UniProt O00763)
experiment-notes: ACC2 assay (spectrophotometric 384 well assay, NADH-linked kinetic method)
Format: biochemical
condition: hACC2 construct lacking 128 N-terminal amino acids; coupled lactate dehydrogenase/pyruvate kinase reaction, 340 nm, 25° C.
property-name: pIC50
# pIC50: negative log10 of molar concentration; output just the value

Input `CC(=O)N[C@@H](C)c1ccc(O[C@@H]2CCN(c3ncnc(N(C)C4CCC4)c3F)C2)cc1` . Output pIC50: 7.22

Notebook: `CC(=O)N[C@@H](C)c1ccc(O[C@@H]2CCN(c3nc(N(C)CC(C)(C)O)ncc3F)C2)cc1` , pIC50 read as 6.09

Measured pIC50, CC(=O)N[C@@H](C)c1ccc(OC2CCN(c3cnc(OCC4CC4)nc3)C2)cc1 (stereo partly drawn) : 6.02

So, `CC(=O)N[C@@H](C)c1ccc(O[C@@H]2CCN(c3ncnc(N4CCCC4)c3Cl)C2)cc1` ? Its pIC50 was 6.92

Value of measured pIC50 for the entry `CC(=O)N[C@@H](C)c1ccc(O[C@@H]2CCN(c3nc(N4C[C@@H]5CC[C@@H](C4)O5)ncc3Cl)C2)cc1` : 5.91

`CC(=O)N[C@@H](C)c1ccc(O[C@@H]2CCN(c3nc(N(C)CC4CC4)ncc3F)C2)cc1` has a reported pIC50 of 7.48

The compound listed as `CC(=O)N[C@@H](C)c1ccc(O[C@@H]2CCN(c3ncnc(OCC(C)(F)F)c3F)C2)cc1` shows pIC50 equal to 7.07

So for C[C@H](NC(=O)N(C)C)c1ccc(OC2CCN(c3ccnc(N4CCOCC4)n3)C2)cc1 (stereo partly drawn) , the logged pIC50 turned out to be 6.64

Field pIC50 (entry `CC(=O)N[C@@H](C)c1ccc(O[C@@H]2CCN(c3nc(N4CCc5nocc5C4)ncc3Cl)C2)cc1` ) reads 5.86

In plain terms, `CC(=O)N[C@@H]1CC[C@H](C(=O)N[C@@H](C)c2ccc(O[C@@H]3CCN(c4ncnc(OCC5CC5)c4F)C3)cc2)C1` has a documented pIC50 of 6.63

// sample `CC(=O)N[C@@H](C)c1ccc(O[C@@H]2CCN(c3ncnc(N(C)CC(F)F)c3F)C2)cc1` , its pIC50 was 6.69

Measured pIC50 of `CCN(CC)c1ncc(Cl)c(N2CC[C@@H](Oc3ccc([C@H](C)NC(C)=O)cc3)C2)n1` : 7.23

Note to self: pIC50 recorded for COC(=O)N[C@@H](C)c1ccc(OC2CCN(c3ccnc(N4CCOCC4)n3)C2)cc1 (stereo partly drawn) was 6.61

Field pIC50 (entry `CC(=O)N[C@@H](C)c1ccc(O[C@@H]2CCN(c3ncnc(OCC(F)F)c3F)C2)cc1` ) reads 6.82

Looking up `CC(=O)N[C@@H](C)c1ccc(O[C@@H]2CCN(c3ncnc(N4CCC5(CC5)C4)c3Cl)C2)cc1` , I see its pIC50 listed as 7.40
